Origin of values: PubChem BioAssay AID2060621

# Test system: 324938-238-R-J1-PDC complex spheroids viability
# assay_notes: Anticancer human tumor 324938-238-R-J1-PDC patient-derived bladder carcinoma cell line growth inhibition [CLK]
# cond: second compound 0.0316 µM; first compound 0.316 µM; stronger effect = lower value
Class definitions on viability, T/C: low: < 40%; middle: ≥ 40% and < 80%; high: ≥ 80%

molecule: CCCS(=O)(=O)Nc1ccc(F)c(C(=O)c2c[nH]c3ncc(-c4ccc(Cl)cc4)cc23)c1F + CNC(=O)c1ccc(Nc2nc(OC3CCCC3)c3c(-c4ccc5nc(C)oc5c4)c[nH]c3n2)c(OC)c1
assigned_label: high
--
molecule: O=C(c1cc(Cc2n[nH]c(=O)c3ccccc23)ccc1F)N1CCN(C(=O)C2CC2)CC1 + CNC(=O)c1ccc(Nc2nc(OC3CCCC3)c3c(-c4ccc5nc(C)oc5c4)c[nH]c3n2)c(OC)c1
assigned_label: high
--
molecule: CC(CO)NC(=O)c1cc(-c2ccc(Cl)cc2)nn(-c2cnn(C)c2)c1=O (configuration not stated) + CNC(=O)c1ccc(Nc2nc(OC3CCCC3)c3c(-c4ccc5nc(C)oc5c4)c[nH]c3n2)c(OC)c1
assigned_label: high
--
molecule: COC1C=CCC(C)C(C)S(=O)(=O)NC(=O)c2ccc3c(c2)N(CC2CCC21)CC1(CCCc2cc(Cl)ccc21)CO3 (configuration not stated) + CNC(=O)c1ccc(Nc2nc(OC3CCCC3)c3c(-c4ccc5nc(C)oc5c4)c[nH]c3n2)c(OC)c1
assigned_label: low
--
molecule: CC1COCCN1c1cc(C2(S(C)(=N)=O)CC2)nc(-c2ccnc3[nH]ccc23)n1 (configuration not stated) + CNC(=O)c1ccc(Nc2nc(OC3CCCC3)c3c(-c4ccc5nc(C)oc5c4)c[nH]c3n2)c(OC)c1
assigned_label: middle
--
molecule: COc1ccc([C@@H](O)c2cc(-c3ncnc4cc(N5CCOCC5)ccc34)c(F)cc2Cl)nn1 + CNC(=O)c1ccc(Nc2nc(OC3CCCC3)c3c(-c4ccc5nc(C)oc5c4)c[nH]c3n2)c(OC)c1
assigned_label: middle
--
molecule: CC1COCCN1c1cc(C2(S(C)(=N)=O)CC2)nc(-c2ccnc3[nH]ccc23)n1 (configuration not stated) + CN1CCN(c2cc(C(=O)Nc3cc4cc(-c5cnn(C)c5)ccc4cn3)ccn2)CC1
assigned_label: middle
--
molecule: COc1c(OCCCN2CCOCC2)ccc2c3n(c(=NC(=O)c4cnc(N)nc4)nc12)CCN3 + CN1CCN(c2cc(C(=O)Nc3cc4cc(-c5cnn(C)c5)ccc4cn3)ccn2)CC1
assigned_label: low
--
molecule: O=c1[nH]cc(F)c(=O)[nH]1 + CN1CCN(c2cc(C(=O)Nc3cc4cc(-c5cnn(C)c5)ccc4cn3)ccn2)CC1
assigned_label: middle
--
molecule: COc1cccc2c1C(=O)c1c(O)c3c(c(O)c1C2=O)CC(O)(C(=O)CO)CC3OC1CC(N)C(O)C(C)O1 (configuration not stated) + CN1CCN(c2cc(C(=O)Nc3cc4cc(-c5cnn(C)c5)ccc4cn3)ccn2)CC1
assigned_label: low
--
molecule: CC1(C)CCC(CN2CCN(c3ccc(C(=O)NS(=O)(=O)c4ccc(NCC5CCOCC5)c([N+](=O)[O-])c4)c(Oc4cnc5[nH]ccc5c4)c3)CC2)=C(c2ccc(Cl)cc2)C1 + CNC(=O)c1ccc(Nc2nc(OC3CCCC3)c3c(-c4ccc5nc(C)oc5c4)c[nH]c3n2)c(OC)c1
assigned_label: high
--
molecule: CCCS(=O)(=O)Nc1ccc(F)c(C(=O)c2c[nH]c3ncc(-c4ccc(Cl)cc4)cc23)c1F + CN1CCN(c2cc(C(=O)Nc3cc4cc(-c5cnn(C)c5)ccc4cn3)ccn2)CC1
assigned_label: high

---

# System: 324938-238-R-J1-PDC complex spheroids viability
# assay_notes: Anticancer human tumor 324938-238-R-J1-PDC cell line growth inhibition [CLK];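 note: viability read after seven days of drug exposure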;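 for viability, T/C: 100% = DMSO vehicle control wells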
# cond: second compound 3.16 µM; first compound 0.0316 µM; stronger effect = lower value
Reported viability, T/C values for a set of compounds

compound: CCN1CCN(Cc2ccc(Nc3ncc(F)c(-c4cc(F)c5nc(C)n(C(C)C)c5c4)n3)nc2)CC1 + CNC(=O)c1ccc(Nc2nc(OC3CCCC3)c3c(-c4ccc5nc(C)oc5c4)c[nH]c3n2)c(OC)c1
target_or_test_system: 324938-238-R-J1-PDC complex spheroids viability
viability, T/C / %: 16.1

compound: Cn1ncnc1[C@H]1c2n[nH]c(=O)c3cc(F)cc(c23)N[C@@H]1c1ccc(F)cc1 + CNC(=O)c1ccc(Nc2nc(OC3CCCC3)c3c(-c4ccc5nc(C)oc5c4)c[nH]c3n2)c(OC)c1
target_or_test_system: 324938-238-R-J1-PDC complex spheroids viability
viability, T/C / %: 18

compound: CC(=O)O[C@H]1C(=O)[C@@]2(C)[C@H]([C@H](OC(=O)c3ccccc3)[C@]3(O)C[C@H](OC(=O)[C@H](O)[C@@H](NC(=O)c4ccccc4)c4ccccc4)C(C)=C1C3(C)C)[C@]1(OC(C)=O)CO[C@@H]1C[C@@H]2O + CN1CCN(c2cc(C(=O)Nc3cc4cc(-c5cnn(C)c5)ccc4cn3)ccn2)CC1
target_or_test_system: 324938-238-R-J1-PDC complex spheroids viability
viability, T/C / %: 0.17

compound: COc1ccc([C@@H](O)c2cc(-c3ncnc4cc(N5CCOCC5)ccc34)c(F)cc2Cl)nn1 + CN1CCN(c2cc(C(=O)Nc3cc4cc(-c5cnn(C)c5)ccc4cn3)ccn2)CC1
target_or_test_system: 324938-238-R-J1-PDC complex spheroids viability
viability, T/C / %: 0.13

compound: CC(CO)NC(=O)c1cc(-c2ccc(Cl)cc2)nn(-c2cnn(C)c2)c1=O (stereo unspecified) + CNC(=O)c1ccc(Nc2nc(OC3CCCC3)c3c(-c4ccc5nc(C)oc5c4)c[nH]c3n2)c(OC)c1
target_or_test_system: 324938-238-R-J1-PDC complex spheroids viability
viability, T/C / %: 15.9

compound: C#Cc1c(F)ccc2cc(O)cc(-c3ncc4c(N5CC6CCC(C5)N6)nc(OCC56CCCN5CC(F)C6)nc4c3F)c12 (stereo unspecified) + CN1CCN(c2cc(C(=O)Nc3cc4cc(-c5cnn(C)c5)ccc4cn3)ccn2)CC1
target_or_test_system: 324938-238-R-J1-PDC complex spheroids viability
viability, T/C / %: 0.13

---

Reported viability, T/C values for a set of compounds
# Tested on: 324938-238-R-J1-PDC complex spheroids viability
# assay_notes: Anticancer human tumor 324938-238-R-J1-PDC cell line growth inhibition [CLK];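 note: viability read after seven days of drug exposure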;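 for viability, T/C: 100% = DMSO vehicle control wells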
# cond: second compound 0.0316 µM; first compound 0.00316 µM; stronger effect = lower value
value_type: viability, T/C (%)

compound: Cn1ncnc1[C@H]1c2n[nH]c(=O)c3cc(F)cc(c23)N[C@@H]1c1ccc(F)cc1 + CNC(=O)c1ccc(Nc2nc(OC3CCCC3)c3c(-c4ccc5nc(C)oc5c4)c[nH]c3n2)c(OC)c1
observed_result: 66.3

compound: COc1c(OCCCN2CCOCC2)ccc2c3n(c(=NC(=O)c4cnc(N)nc4)nc12)CCN3 + CN1CCN(c2cc(C(=O)Nc3cc4cc(-c5cnn(C)c5)ccc4cn3)ccn2)CC1
observed_result: 76.1

compound: CCc1c2c(nc3ccc(O)cc13)-c1cc3c(c(=O)n1C2)COC(=O)[C@]3(O)CC + CNC(=O)c1ccc(Nc2nc(OC3CCCC3)c3c(-c4ccc5nc(C)oc5c4)c[nH]c3n2)c(OC)c1
observed_result: 17.9

---

# System: 324938-238-R-J1-PDC complex spheroids viability
# assay_notes: Anticancer human tumor 324938-238-R-J1-PDC cell line growth inhibition [CLK];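 note: viability read after seven days of drug exposure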
# cond: curve of first compound; second compound 0.0316 µM
pIC50: −log10 of the molar value.
Answer false if pIC50 is under 7, and true if it is 7 or more.

compound: Cn1ncnc1[C@H]1c2n[nH]c(=O)c3cc(F)cc(c23)N[C@@H]1c1ccc(F)cc1 + CN1CCN(c2cc(C(=O)Nc3cc4cc(-c5cnn(C)c5)ccc4cn3)ccn2)CC1
assigned_label: true

compound: NC(=O)C(=Cn1cnc(-c2cc(C(F)(F)F)cc(C(F)(F)F)c2)n1)c1cncnc1 + CN1CCN(c2cc(C(=O)Nc3cc4cc(-c5cnn(C)c5)ccc4cn3)ccn2)CC1
assigned_label: true

compound: CC(Nc1ccc2c(c1)OCCn1cc(N3C(=O)OCC3C(F)F)nc1-2)C(N)=O (stereo unspecified) + CN1CCN(c2cc(C(=O)Nc3cc4cc(-c5cnn(C)c5)ccc4cn3)ccn2)CC1
assigned_label: false

compound: Cn1ncnc1[C@H]1c2n[nH]c(=O)c3cc(F)cc(c23)N[C@@H]1c1ccc(F)cc1 + CNC(=O)c1ccc(Nc2nc(OC3CCCC3)c3c(-c4ccc5nc(C)oc5c4)c[nH]c3n2)c(OC)c1
assigned_label: true

compound: CCc1c2c(nc3ccc(O)cc13)-c1cc3c(c(=O)n1C2)COC(=O)[C@]3(O)CC + CNC(=O)c1ccc(Nc2nc(OC3CCCC3)c3c(-c4ccc5nc(C)oc5c4)c[nH]c3n2)c(OC)c1
assigned_label: true

compound: COc1c(OCCCN2CCOCC2)ccc2c3n(c(=NC(=O)c4cnc(N)nc4)nc12)CCN3 + CN1CCN(c2cc(C(=O)Nc3cc4cc(-c5cnn(C)c5)ccc4cn3)ccn2)CC1
assigned_label: true

compound: C=CC(=O)Nc1cc(Nc2nccc(-c3cn(C)c4ccccc34)n2)c(OC)cc1N(C)CCN(C)C + CNC(=O)c1ccc(Nc2nc(OC3CCCC3)c3c(-c4ccc5nc(C)oc5c4)c[nH]c3n2)c(OC)c1
assigned_label: true

compound: C#Cc1c(F)ccc2cc(O)cc(-c3ncc4c(N5CC6CCC(C5)N6)nc(OCC56CCCN5CC(F)C6)nc4c3F)c12 (stereo unspecified) + CN1CCN(c2cc(C(=O)Nc3cc4cc(-c5cnn(C)c5)ccc4cn3)ccn2)CC1
assigned_label: false

compound: CC(C)CC(NC(=O)C(Cc1ccccc1)NC(=O)c1cnccn1)B(O)O (stereo unspecified) + CNC(=O)c1ccc(Nc2nc(OC3CCCC3)c3c(-c4ccc5nc(C)oc5c4)c[nH]c3n2)c(OC)c1
assigned_label: true

compound: CCCS(=O)(=O)Nc1ccc(F)c(C(=O)c2c[nH]c3ncc(-c4ccc(Cl)cc4)cc23)c1F + CN1CCN(c2cc(C(=O)Nc3cc4cc(-c5cnn(C)c5)ccc4cn3)ccn2)CC1
assigned_label: false

compound: Nc1ccccc1NC(=O)c1ccc(CNC(=O)OCc2cccnc2)cc1 + CNC(=O)c1ccc(Nc2nc(OC3CCCC3)c3c(-c4ccc5nc(C)oc5c4)c[nH]c3n2)c(OC)c1
assigned_label: false

compound: C=CC(=O)N1CCN(c2nc(=O)n(-c3c(C)ccnc3C(C)C)c3nc(-c4c(O)cccc4F)c(F)cc23)C(C)C1 (stereo unspecified) + CN1CCN(c2cc(C(=O)Nc3cc4cc(-c5cnn(C)c5)ccc4cn3)ccn2)CC1
assigned_label: false

compound: C#Cc1c(F)ccc2cc(O)cc(-c3ncc4c(N5CC6CCC(C5)N6)nc(OCC56CCCN5CC(F)C6)nc4c3F)c12 (stereo unspecified) + CNC(=O)c1ccc(Nc2nc(OC3CCCC3)c3c(-c4ccc5nc(C)oc5c4)c[nH]c3n2)c(OC)c1
assigned_label: false

compound: O=C(c1cc(Cc2n[nH]c(=O)c3ccccc23)ccc1F)N1CCN(C(=O)C2CC2)CC1 + CNC(=O)c1ccc(Nc2nc(OC3CCCC3)c3c(-c4ccc5nc(C)oc5c4)c[nH]c3n2)c(OC)c1
assigned_label: false

compound: CCc1c2c(nc3ccc(O)cc13)-c1cc3c(c(=O)n1C2)COC(=O)[C@]3(O)CC + CN1CCN(c2cc(C(=O)Nc3cc4cc(-c5cnn(C)c5)ccc4cn3)ccn2)CC1
assigned_label: true

compound: CC(Nc1ccc2c(c1)OCCn1cc(N3C(=O)OCC3C(F)F)nc1-2)C(N)=O (stereo unspecified) + CNC(=O)c1ccc(Nc2nc(OC3CCCC3)c3c(-c4ccc5nc(C)oc5c4)c[nH]c3n2)c(OC)c1
assigned_label: false

compound: Nc1ccn(C2OC(CO)C(O)C2(F)F)c(=O)n1 (stereo unspecified) + CNC(=O)c1ccc(Nc2nc(OC3CCCC3)c3c(-c4ccc5nc(C)oc5c4)c[nH]c3n2)c(OC)c1
assigned_label: true

compound: CC1(C)CCC(CN2CCN(c3ccc(C(=O)NS(=O)(=O)c4ccc(NCC5CCOCC5)c([N+](=O)[O-])c4)c(Oc4cnc5[nH]ccc5c4)c3)CC2)=C(c2ccc(Cl)cc2)C1 + CNC(=O)c1ccc(Nc2nc(OC3CCCC3)c3c(-c4ccc5nc(C)oc5c4)c[nH]c3n2)c(OC)c1
assigned_label: false

compound: Nc1ccccc1NC(=O)c1ccc(CNC(=O)OCc2cccnc2)cc1 + CN1CCN(c2cc(C(=O)Nc3cc4cc(-c5cnn(C)c5)ccc4cn3)ccn2)CC1
assigned_label: false
